- system_name: Serotonin 2A (5-HT2A) (Homo sapiens, UniProt P28223)
- Sequence (P28223 whole entry): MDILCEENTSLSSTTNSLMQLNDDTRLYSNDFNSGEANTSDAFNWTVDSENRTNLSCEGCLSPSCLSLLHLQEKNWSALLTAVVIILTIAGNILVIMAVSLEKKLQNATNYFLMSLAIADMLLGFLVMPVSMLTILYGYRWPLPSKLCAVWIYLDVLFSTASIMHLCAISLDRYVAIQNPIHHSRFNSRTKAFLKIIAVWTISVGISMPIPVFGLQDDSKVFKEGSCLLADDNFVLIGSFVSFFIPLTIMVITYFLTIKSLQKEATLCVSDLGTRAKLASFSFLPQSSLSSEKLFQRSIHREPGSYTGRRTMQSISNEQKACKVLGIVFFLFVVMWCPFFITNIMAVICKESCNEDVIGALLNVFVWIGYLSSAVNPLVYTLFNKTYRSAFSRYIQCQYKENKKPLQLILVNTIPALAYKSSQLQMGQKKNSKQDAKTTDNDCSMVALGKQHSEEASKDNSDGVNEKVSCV
- run_description: NIMH-PDSP radioligand binding, 5-HT2A
pKi: −log10 of the molar value.
Reported values of pKi for individual entries

Reference set, count: 5
NC1(c2ccc(F)cc2)CC2CCC1C2 (stereo not drawn) [Compound 4b] : < 5.00
Fc1ccc(C2(NCCN3CCOCC3)CC3CCC2C3)cc1 (stereo not drawn) [Compound 5d] : < 5.00
NC1(c2ccccc2)CC2CCC1C2 (stereo not drawn) [Compound 4a, 2-phenylbicyclo[2.2.1]heptan-2-amine] : < 5.00
c1ccc(C2(NCCN3CCCC3)CC3CCC2C3)cc1 (stereo not drawn) [Compound 5e] : < 5.00
c1ccc(C2(NCCN3CCOCC3)CC3CCC2C3)cc1 (stereo not drawn) [Compound 5c] : < 5.00

Note: attention shifts to another entry.
query: Which measured pKi value corresponds to c1ccc(C2(NCCN3CCCCC3)CC3CCC2C3)cc1 (stereo not drawn) [Compound 5a] ?
result: 5.58
